- assay_method_text: qHTS for Inhibitors of TGF-b; also: nearly all actives have a fitted effect of over 65% in size
- study_conditions: HepG2 CAGA-GFP TGF-b/SMAD3 reporter, GFP fluorescence, 18 h, TGF-beta stimulated, 500 pg/mL final; series mostly up to 46.1 µM
In all, about 410,000 compounds went through this assay and about 5,000 (1.2%) were called active. Not shown: some 13% with an inconclusive outcome. Calls follow the shape of the dose curve; as a rule, active = well fitted inhibition curve with a large enough effect; inconclusive = small, poorly fitted or top-dose-only effect; inactive = no such curve, though single readings can be large or run the other way. Shown is part of a subset that was picked to be rich in actives.
Just give me one of these, please: y = active, n = inactive

Some solved cases for reference:
Cc1ccc(CCNC(=O)c2ccc(CS(=O)(=O)Cc3cccc(C)c3)o2)cc1 :: n
O=C(NCCN1CCOCC1)c1ccc2c(c1)N(Cc1cccc(Cl)c1)C(=O)c1ccccc1S2(=O)=O :: n
CCOc1ccc(C2C(C(=O)Nc3ccc(Cl)cc3)=C(C)Nc3nc(C(F)(F)F)nn32)cc1 (stereo not drawn) :: n
CC(=O)N1c2ccccc2CC1C(=O)N1CCN(c2ccc(F)cc2)CC1 (stereo not drawn) :: n
CCOCCn1ccc2c(OCC(=O)NCc3ccc(C)cc3)cccc2c1=O :: n
FC(F)(F)c1cccc(N/N=C/c2ccccc2)c1 :: y
Cc1cccc(NC(=O)c2nc(S(=O)(=O)Cc3ccccc3)ncc2Cl)c1 :: y
Cc1ccc(NC(=O)c2nc(S(=O)(=O)Cc3cccc(C)c3)ncc2Cl)cc1 :: y

[ask] # fetch the recorded call for O=C(Nc1cccc(Cl)c1)c1csnn1 here
[reply] n

[ask] Please do the same for O=C(NCc1cn2ccsc2n1)Nc1cccc(Cl)c1 as well.
[reply] n

[ask] Please do the same for O=C(Nc1nc2ccc(F)cc2s1)c1nc(SCc2ccccc2F)ncc1Cl as well.
[reply] n

[ask] Please do the same for COc1ccc(CNC(=O)C[C@H]2C[C@H](C(=O)N3CCOCC3)[C@@]3(CCC4CCCC4)c4[nH]c5ccc(Cl)cc5c4CCN3C2=O)cc1OC as well.
[reply] y

[ask] Please do the same for CCOC(=O)c1ccc(NC(=O)c2nc(SCc3ccc(F)cc3)ncc2Cl)cc1 as well.
[reply] n

[ask] Please do the same for CCN(CC)c1nc(C#N)nc(OC)n1 as well.
[reply] n

* * *

- assay_method_text: qHTS for Inhibitors of TGF-b; also: nearly all actives have a fitted effect of over 65% in size
- study_conditions: HepG2 CAGA-GFP TGF-b/SMAD3 reporter, GFP fluorescence, 18 h, TGF-beta stimulated, 500 pg/mL final; series mostly up to 46.1 µM
Hit rate of the full screen: of about 410,000 compounds, about 5,000 (1.2%) were called active. Inconclusive results (about 13%) are left out. The call rests on the fitted dose curve; in most records, active means well fitted inhibition curve with a large enough effect; inconclusive means small, poorly fitted or top-dose-only effect; inactive means no such curve, though single readings can be large or run the other way. Shown is part of a subset that was picked to be rich in actives.
Just give me one of these, please: active, inactive

Some solved cases for reference:
Cc1ccc2sc(N(CCN(C)C)C(=O)/C=C/c3cccs3)nc2c1C :: inactive
CCC(C)NC(=O)Cn1c(=O)n(-c2ccc(Cl)cc2)c(=O)c2c3c(sc21)CCCC3 (configuration not stated) :: inactive
Brc1cccc[n+]1Cc1cccc(C[n+]2ccccc2Br)c1 :: inactive

Attention now shifts to the item below.
[ask] # fetch the recorded call for CC(=O)Nc1ccc2nc(SCCOc3cc(C)cc(C)c3)sc2c1 here
[reply] inactive

* * *

- assay_method_text: qHTS for Inhibitors of TGF-b; also: nearly all actives have a fitted effect of over 65% in size
- study_conditions: HepG2 CAGA-GFP TGF-b/SMAD3 reporter, GFP fluorescence, 18 h, TGF-beta stimulated, 500 pg/mL final; series mostly up to 46.1 µM
- Description: TGF-b is a main component in the TGF-b signaling pathway which plays diverse roles in cellular and development pathways. TGF-b is the mediated by the transcription factors Smads. […] We aim to identify Smad3-small molecule antagonists using a quantitative high throughput screening (qHTS) approach. […] Concentration-response curves were fitted to the signals arising from the resulting fluorescence. […]
Among all 410,000 compounds or so, about 5,000 (1.2%) were called active. Inconclusive results (about 13%) are left out. Calls follow the shape of the dose curve; as a rule, active = well fitted inhibition curve with a large enough effect; inconclusive = small, poorly fitted or top-dose-only effect; inactive = no such curve, though single readings can be large or run the other way. The full list was thinned out, with actives kept by preference.
Just give me one of these, please: active, inactive

Cc1nn(C(C)C(=O)Nc2ccc(C(C)C)cc2)c(=O)c2c1sc1ccccc12 (configuration not stated) :: inactive
CCCCCCCCn1c2c(c(=N)c3c1CCC3)CCCC2 :: active

[ask] # fetch the recorded call for COc1ccc(NC(=O)CSc2nc3ncccc3[nH]2)c(OC)c1 here
[reply] inactive

[ask] Please do the same for CCOC(=O)N1CCN(c2cc(C)c([N+](=O)[O-])cc2F)CC1 as well.
[reply] inactive

[ask] Please do the same for C=COC(=O)N1CCN(/[N+]([O-])=N/Oc2ccc([N+](=O)[O-])cc2[N+](=O)[O-])CC1 as well.
[reply] active

[ask] Please do the same for COc1ccc(NC(=O)C(=O)NCc2ccco2)cc1 as well.
[reply] inactive

[ask] Please do the same for OC(Cc1ccc2ccccc2n1)c1ccc(Cl)c(Cl)c1 (configuration not stated) as well.
[reply] inactive

[ask] Please do the same for CCOC(=O)c1cnc2c(C)cc(Cl)cc2c1NCCc1ccc(OC)c(OC)c1 as well.
[reply] inactive

* * *

- assay_method_text: qHTS for Inhibitors of TGF-b; also: nearly all actives have a fitted effect of over 65% in size
- study_conditions: HepG2 CAGA-GFP TGF-b/SMAD3 reporter, GFP fluorescence, 18 h, TGF-beta stimulated, 500 pg/mL final; series mostly up to 46.1 µM
Among all 410,000 compounds or so, about 5,000 (1.2%) were called active. Inconclusive results (about 13%) are left out. The call rests on the fitted dose curve; in most records, active means well fitted inhibition curve with a large enough effect; inconclusive means small, poorly fitted or top-dose-only effect; inactive means no such curve, though single readings can be large or run the other way. The list comes from a sample in which actives are over-represented; it also holds close analogues and randomly drawn compounds.
Just give me one of these, please: y (active), n (inactive)

CCOC(=O)C1CCCN(CC(=O)Nc2cc(C)c3c(=O)oc4ccccc4c3n2)C1 (stereo not drawn) :: n

[ask] # fetch the recorded call for CC(C)N1CCC(=NNc2ccc([N+](=O)[O-])cc2S(=O)(=O)N2CCOCC2)CC1 here
[reply] y

* * *

- assay_method_text: qHTS for Inhibitors of TGF-b; also: nearly all actives have a fitted effect of over 65% in size
- study_conditions: HepG2 CAGA-GFP TGF-b/SMAD3 reporter, GFP fluorescence, 18 h, TGF-beta stimulated, 500 pg/mL final; series mostly up to 46.1 µM
Among all 410,000 compounds or so, about 5,000 (1.2%) were called active. Not shown: some 13% with an inconclusive outcome. Calls come from the whole dose curve; as a rule, active = well fitted inhibition curve with a large enough effect; inconclusive = small, poorly fitted or top-dose-only effect; inactive = no such curve, though single readings can be large or run the other way. Many of the other results were omitted from the sample, so actives are more common in it than they were.
Just give me one of these, please: active, inactive

Some solved cases for reference:
CC1=C(C(=O)N(C(C)C)C(C)C)CC(CC(=O)NCCCCc2ccccc2)C(=O)N1CCC1=CCCCC1 (stereo not given) :: active
O=C1NC[C@@H](Cc2ccc(O)cc2)N(CCc2cccc(F)c2)C1=O :: inactive
COc1ccc(N/C=C(\C2OC(=O)c3ccccc32)[N+](=O)[O-])cc1 (stereo not given) :: inactive
COc1cccc(-c2cnc(C(O)c3ccccc3OC)[nH]2)c1 (stereo not given) :: inactive
NC1=NC[C@@H](Cc2ccc(O)cc2)N1CC1CCCCC1 :: inactive
c1ccc2cc3c(NCCN4CCOCC4)ccnc3cc2c1 :: active

Attention now shifts to the item below.
[ask] # fetch the recorded call for Cc1nc2cc(C(F)(F)F)ccc2n1CCNc1nc(-c2cc(Cl)c(N)c(Cl)c2)cs1 here
[reply] active

* * *

- assay_method_text: qHTS for Inhibitors of TGF-b; also: nearly all actives have a fitted effect of over 65% in size
- study_conditions: HepG2 CAGA-GFP TGF-b/SMAD3 reporter, GFP fluorescence, 18 h, TGF-beta stimulated, 500 pg/mL final; series mostly up to 46.1 µM
About 5,000 (1.2%) of roughly 410,000 compounds were called active. Not shown: some 13% with an inconclusive outcome. The call rests on the fitted dose curve; in most records, active means well fitted inhibition curve with a large enough effect; inconclusive means small, poorly fitted or top-dose-only effect; inactive means no such curve, though single readings can be large or run the other way. For the sample, actives were picked, then their nearest neighbours and some compounds at random.
Just give me one of these, please: active, inactive

Some solved cases for reference:
Cc1ccccc1-c1nc2scc(CCNC(=O)C(=O)Nc3ccc(F)cc3F)n2n1 :: inactive
CCOc1c2ccc(C(=O)NCc3ccc4c(c3)OCO4)cc2nn1C :: inactive
CCc1ccc(CNC(=O)C2CCN(c3nn4cc(-c5ccc(F)cc5)nc4s3)CC2)cc1 :: inactive
COc1ccc(OCCCn2c(C)nc3cc(C)c(C)cc32)cc1 :: inactive
CCOC(=O)CN1CCC(c2ccccc2)CC1 :: inactive
CCCc1cc(C(=O)Nc2ccc(Cl)cn2)cs1 :: inactive
COc1cc(NC(=O)c2[nH]cnc2C(N)=O)cc(C(=O)Nc2cccc(C(F)(F)F)c2)c1 :: active
Cc1cc(C)cc(NC(=O)CSc2nc(=O)n(CCN3CCOCC3)c3c2CCC3)c1 :: inactive

[ask] # fetch the recorded call for COc1cc2nc(C#Cc3nc4cc(OC)c(OC)cc4[nH]3)[nH]c2cc1OC here
[reply] inactive

[ask] Please do the same for Cc1cc(Nc2cccc(C(F)(F)F)c2)nc2ccc(NC(=O)c3ccc(=O)[nH]c3)cc12 as well.
[reply] inactive

[ask] Please do the same for Cc1c(Cl)cccc1NC(=O)C1CCCN(C(=O)c2cnn(-c3ccccc3)c2-n2cccc2)C1 (stereo not given) as well.
[reply] active

[ask] Please do the same for O=C(Nc1ccc(Cl)cn1)c1ccccc1-c1ccccc1 as well.
[reply] inactive

[ask] Please do the same for COc1ccccc1NC(=S)NC(=O)C(C)C as well.
[reply] inactive

Data origin, for the record: PubChem BioAssay AID588855
